target: mTOR Kinase (FLAG-TOR) (Homo sapiens, UniProt P42345); construct: FLAG; assay: mTOR kinase assay, purified enzyme, DELFIA format; settings: 100 μM ATP, 1.25 μM His6-S6K; read-out: mTOR Kinase Median IC50
Class key for IC50 values: low end: < 0.7 nM; middle: ≥ 0.7 nM and < 4 nM; high end: ≥ 4 nM

Which bin, given its IC50, does CC(C)n1ccc2c(N3CCOCC3)nc(-c3ccc(NC(=O)Nc4ccc(C(=O)NCCN5CCCC5)cc4)cc3)nc21 [Compound 87] occupy?
low end

Class (by measured IC50) for CCn1ccc2c(N3CCOCC3)nc(-c3ccc(NC(=O)Nc4ccc(C(=O)N(C)CCN(C)C)cc4)cc3)nc21 [Compound 61]
low end

Which IC50 category applies to CN(C)CCCNC(=O)Nc1ccc(-c2nc(N3CCOCC3)c3ccn(CCN(C)C)c3n2)cc1 [Compound 15] here?
high end

Form: Item = CNC(=O)Nc1ccc(-c2nc(N3CCOCC3)c3ccn(CCN(C)C)c3n2)cc1 [Compound 17] ; Class = ?
high end

Class? Entry: CC(C)n1ccc2c(N3CCOCC3)nc(-c3ccc(NC(=O)Nc4ccc(N5CCN(C)CC5)cc4)cc3)nc21 [Compound 80]
middle

Class? Entry: CCn1ccc2c(N3CCOCC3)nc(-c3ccc(NC(=O)Nc4ccc(C(=O)N5C[C@@H](C)N[C@@H](C)C5)cc4)cc3)nc21 [Compound 64]
middle

Which category does the recorded IC50 put CN1CCN(CCn2ccc3c(N4CCOCC4)nc(-c4ccc(NC(=O)Nc5ccncc5)cc4)nc32)CC1 [Compound 28] in?
high end

Place this compound in its band: O=C(Nc1ccc(CO)cc1)Nc1ccc(-c2nc(N3CCOCC3)c3ccn(CC(F)(F)F)c3n2)cc1 [Compound 40]
middle

For the record CC(C)N1CCN(C(=O)c2ccc(NC(=O)Nc3ccc(-c4nc(N5CCOCC5)c5ccn(C(C)C)c5n4)cc3)cc2)CC1 [Compound 93] , report the class its IC50 corresponds to.
middle

Which IC50 category applies to COC(=O)c1ccc(NC(=O)Nc2ccc(-c3nc(N4CCOCC4)c4ccn(C(C)C)c4n3)cc2)cc1 [Compound 89] here?
high end

Consider CN(C)CCN(C)C(=O)c1ccc(NC(=O)Nc2ccc(-c3nc(N4CCOCC4)c4ccn(CC(F)(F)F)c4n3)cc2)cc1 [Compound 51] . To which IC50 class does it belong?
low end

Consider CCN1CCN(C(=O)c2ccc(NC(=O)Nc3ccc(-c4nc(N5CCOCC5)c5ccn(CC)c5n4)cc3)cc2)CC1 [Compound 70] . To which IC50 class does it belong?
middle

Category lookup for the compound O=C(Nc1ccc(C(=O)NCCN2CCCCC2)cc1)Nc1ccc(-c2nc(N3CCOCC3)c3ccn(CC(F)(F)F)c3n2)cc1 [Compound 56]
low end

----------
target: mTOR Kinase (FLAG-TOR) (Homo sapiens, UniProt P42345); construct: FLAG; experiment: mTOR kinase assay, purified enzyme, DELFIA format; conditions: 100 μM ATP, 1.25 μM His6-S6K; read-out: mTOR Kinase Median IC50
measurement.label: IC50 (nM)
The answer is to be given in nM; state only the numeric part.

Response field IC50 (mTOR Kinase (FLAG-TOR) (Homo sapiens, UniProt P42345)) for item CN(C)CCn1ccc2c(N3CCOCC3)nc(-c3ccc(NC(=O)Nc4ccc(F)cc4)cc3)nc21 [Compound 13] : 7.75

So the reported IC50 for CC(C)NCCn1ccc2c(N3CCOCC3)nc(-c3ccc(NC(=O)Nc4ccncc4)cc3)nc21 [Compound 32] , on mTOR Kinase (FLAG-TOR) (Homo sapiens, UniProt P42345), turned out to be 23

The reported mTOR Kinase (FLAG-TOR) (Homo sapiens, UniProt P42345) IC50 of CN(C)CCNC(=O)Nc1ccc(-c2nc(N3CCOCC3)c3ccn(CC(F)(F)F)c3n2)cc1 [Compound 41] is 110

For the molecule CC(C)n1ccc2c(N3CCOCC3)nc(-c3ccc(NC(=O)Nc4ccc(C(=O)NCCN(C)C)cc4)cc3)nc21 [Compound 86] , the measured IC50 on mTOR Kinase (FLAG-TOR) (Homo sapiens, UniProt P42345) was 0.38

For the molecule CCn1ccc2c(N3CCOCC3)nc(-c3ccc(NC(=O)NC)cc3)nc21 [Compound 96] , the measured IC50 on mTOR Kinase (FLAG-TOR) (Homo sapiens, UniProt P42345) was 4.9

# value of IC50, mTOR Kinase (FLAG-TOR) (Homo sapiens, UniProt P42345), item CCn1ccc2c(N3CCOCC3)nc(-c3ccc(NC(=O)Nc4ccc(C(=O)N5CCN(C)CC5)cc4)cc3)nc21 [Compound 63] = 1.75

The value of IC50 recorded for CNCCn1ccc2c(N3CCOCC3)nc(-c3ccc(NC(=O)Nc4ccncc4)cc3)nc21 [Compound 33] when tested on mTOR Kinase (FLAG-TOR) (Homo sapiens, UniProt P42345) reads 5.3

Reported IC50 (mTOR Kinase (FLAG-TOR) (Homo sapiens, UniProt P42345)) for entry CCn1ccc2c(N3CCOCC3)nc(-c3ccc(NC(=O)Nc4ccc(C(=O)NCCN(C)C)cc4)cc3)nc21 [Compound 62] is 0.56

Entry O=C(Nc1cccnc1)Nc1nc2cc(-c3nc(N4CCOCC4)c4ccn(CC(F)(F)F)c4n3)ccc2[nH]1 [Compound 46] , mTOR Kinase (FLAG-TOR) (Homo sapiens, UniProt P42345) data, IC50 value: 3.4

Record CC(C)n1ccc2c(N3CCOCC3)nc(-c3ccc(NC(=O)Nc4ccc(C(=O)N5CCN(C)CC5)cc4)cc3)nc21 [Compound 82] has mTOR Kinase (FLAG-TOR) (Homo sapiens, UniProt P42345) IC50 equal to 1.5

# value of IC50, mTOR Kinase (FLAG-TOR) (Homo sapiens, UniProt P42345), item CC(C)(C)NCCn1ccc2c(N3CCOCC3)nc(-c3ccc(NC(=O)Nc4ccncc4)cc3)nc21 [Compound 31] = 25.5

The reported IC50 value, mTOR Kinase (FLAG-TOR) (Homo sapiens, UniProt P42345), for O=C(Nc1ccc(F)cc1)Nc1ccc(-c2nc(N3CCOCC3)c3ccn(CC(F)(F)F)c3n2)cc1 [Compound 38] reads 3.45

The molecule CCn1ccc2c(N3CCOCC3)nc(-c3ccc(NC(=O)Nc4ccc(C(=O)N5CCC(N6CCCC6)CC5)cc4)cc3)nc21 [Compound 69] , tested on mTOR Kinase (FLAG-TOR) (Homo sapiens, UniProt P42345), showed IC50 of 0.8

Bench note, mTOR Kinase (FLAG-TOR) (Homo sapiens, UniProt P42345): entry COC(=O)c1ccc(NC(=O)Nc2ccc(-c3nc(N4CCOCC4)c4ccn(CC(F)(F)F)c4n3)cc2)cc1 [Compound 50] , its IC50 = 4.9

Here CCn1cc(CN(C)C)c2c(N3CCOCC3)nc(-c3ccc(NC(=O)NC)cc3)nc21 [Compound 97] was tested on mTOR Kinase (FLAG-TOR) (Homo sapiens, UniProt P42345), and its IC50 came to 47

So the reported IC50 for CCn1ccc2c(N3CCOCC3)nc(-c3ccc(NC(=O)Nc4ccc(C(=O)N5CCN(c6ccccn6)CC5)cc4)cc3)nc21 [Compound 75] , on mTOR Kinase (FLAG-TOR) (Homo sapiens, UniProt P42345), turned out to be 5.65

IC50 for mTOR Kinase (FLAG-TOR) (Homo sapiens, UniProt P42345) with input CNc1nc2cc(-c3nc(N4CCOCC4)c4ccn(CC(F)(F)F)c4n3)ccc2[nH]1 [Compound 48] equals 340

// assay mTOR Kinase (FLAG-TOR) (Homo sapiens, UniProt P42345), entry O=C(Nc1ccncc1)Nc1ccc(-c2nc(N3CCOCC3)c3ccn(CCNCCc4cnc[nH]4)c3n2)cc1 [Compound 30] , IC50 value = 10.7

Bench note, mTOR Kinase (FLAG-TOR) (Homo sapiens, UniProt P42345): c1cc(-c2nc(N3CCOCC3)c3cc[nH]c3n2)c2cn[nH]c2c1 [Compound 3] , IC50 reads 1200

# CC1(C)CN(C(=O)c2ccc(NC(=O)Nc3ccc(-c4nc(N5CCOCC5)c5ccn(CC(F)(F)F)c5n4)cc3)cc2)CCN1 [Compound 55] with mTOR Kinase (FLAG-TOR) (Homo sapiens, UniProt P42345): IC50 is 0.94

The reported IC50 value, mTOR Kinase (FLAG-TOR) (Homo sapiens, UniProt P42345), for O=C(Nc1ccc(-c2nc(N3CCOCC3)c3cc[nH]c3n2)cc1)Nc1cccnc1 [Compound 5] reads 1.7

For the molecule CC(C)n1ccc2c(N3CCOCC3)nc(-c3ccc(NC(=O)Nc4ccc(C(=O)N5CCNCC5)cc4)cc3)nc21 [Compound 83] , the measured IC50 on mTOR Kinase (FLAG-TOR) (Homo sapiens, UniProt P42345) was 0.64

Measured on mTOR Kinase (FLAG-TOR) (Homo sapiens, UniProt P42345), CN1CCN(C(=O)c2ccc(NC(=O)Nc3ccc(-c4nc(N5CCOCC5)c5ccn(CC(F)(F)F)c5n4)cc3)cc2)CC1 [Compound 54] has a documented IC50 of 1.1

Per the reported mTOR Kinase (FLAG-TOR) (Homo sapiens, UniProt P42345) data, CCn1ccc2c(N3CCOCC3)nc(-c3ccc(NC(=O)Nc4ccc(C(=O)N5CCC(N(C)C)CC5)cc4)cc3)nc21 [Compound 65] has IC50 of 1.09

Form field, IC50 with mTOR Kinase (FLAG-TOR) (Homo sapiens, UniProt P42345), item CCn1ccc2c(N3CCOCC3)nc(-c3ccc(NC(=O)Nc4ccc(C(=O)N5CCC(N6CCOCC6)CC5)cc4)cc3)nc21 [Compound 77] : 1.75

Reported mTOR Kinase (FLAG-TOR) (Homo sapiens, UniProt P42345) IC50 for item CN1CCN(c2ccc(NC(=O)Nc3ccc(-c4nc(N5CCOCC5)c5ccn(CC(F)(F)F)c5n4)cc3)cc2)CC1 [Compound 39] was 1.95

Reading of IC50 for CCn1ccc2c(N3CCOCC3)nc(-c3ccc(NC(=O)Nc4ccc(C(=O)N5CCN(C(C)C)CC5)cc4)cc3)nc21 [Compound 91] with mTOR Kinase (FLAG-TOR) (Homo sapiens, UniProt P42345): 0.73

Let me check: CC(C)n1ccc2c(N3CCOCC3)nc(-c3ccc(NC(=O)Nc4ccc(OCCN(C)C)cc4)cc3)nc21 [Compound 81] , system mTOR Kinase (FLAG-TOR) (Homo sapiens, UniProt P42345), measured IC50 is 2.95
